# target.or.system: LIN28–let-7 interaction (Homo sapiens)
# Construct: Purified LIN28A (residues 16–187) was incubated at a concentration of 200 nM; His-tag (cleaved yes); made in house; host or cells: Escherichia coli BL21(DE3)
# Sequence (Q9H9Z2 16-187): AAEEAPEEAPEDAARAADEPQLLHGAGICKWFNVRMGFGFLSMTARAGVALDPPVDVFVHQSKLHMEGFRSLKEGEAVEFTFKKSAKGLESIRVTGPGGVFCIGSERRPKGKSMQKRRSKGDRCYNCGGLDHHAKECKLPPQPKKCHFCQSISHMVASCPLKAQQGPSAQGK
# protocol: Fluorescence polarization (FP) assay, LIN28A (residues 16–187) and FAM-labeled preE-let-7f-1
# Type: binding
# condition.notes: raw data Table S3; 3.125 μM compound; four replicates
measured.quantity: FP, Average (mP)

O=C(C1=C(O)C(=O)N(c2ccc(C(=O)O)c(O)c2)C1c1ccc(-c2nccs2)cc1)c1ccc(Br)cc1 (stereo not shown) : 107.00
O=C(C1=C(O)C(=O)N(c2ccc(O)c(C(=O)O)c2)C1c1ccc(-c2nccs2)cc1)c1ccccc1 (stereo not shown) : 89.73
O=C(O)c1ccc(C2C(C(=O)c3ccccc3)=C(O)C(=O)N2c2ccc(O)cc2)cc1 (stereo not shown) : 104.83
O=C(C1=C(O)C(=O)N(c2ccc(O)c(C(=O)O)c2)C1c1ccc(-c2nccs2)cc1)c1ccco1 (stereo not shown) : 79.00
O=C(C1=C(O)C(=O)N(c2ccc(O)cc2)C1c1ccc(-c2nccs2)cc1)c1ccc(Br)cc1 (stereo not shown) : 110.25
COc1ccc(C(=O)C2=C(O)C(=O)N(c3ccc(O)c(C(=O)O)c3)C2c2ccc(-c3nccs3)cc2)cc1OC (stereo not shown) : 92.95
O=C(O)c1ccc(C2C(C(=O)c3ccccc3)=C(O)C(=O)N2c2ccc(O)c(C(=O)O)c2)cc1 (stereo not shown) : 91.63
O=C(C1=C(O)C(=O)N(c2ccc(O)c([N+](=O)[O-])c2)C1c1ccc(-c2nccs2)cc1)c1ccccc1 (stereo not shown) : 111.50
O=C(C1=C(O)C(=O)N(c2ccc(O)c(C(=O)O)c2)C1c1ccc(-c2nccs2)cc1)c1ccc(Br)cc1 (stereo not shown) : 75.05
O=C(O)c1ccc(C2C(C(=O)c3ccccc3)=C(O)C(=O)N2c2ccc(C(=O)O)c(O)c2)cc1 (stereo not shown) : 101.00

* * *

# target.or.system: LIN28–let-7 interaction (Homo sapiens, UniProt Q9H9Z2)
# Construct: Purified LIN28A (residues 16–187) was incubated at a concentration of 200 nM; His-tag (cleaved yes); made in house; host or cells: Escherichia coli BL21(DE3)
# protocol: Fluorescence polarization (FP) assay, LIN28A (residues 16–187) and FAM-labeled preE-let-7f-1
# Format: binding
# condition.notes: Table 1; quadruplicate; starting from 30 μM, eight concentrations; extrapolated based on the observed IC50 curves; read-out: IC50, LIN28–let-7 inhibitory activity
pIC50: −log10 of the molar value.
measured.quantity: pIC50

Recorded pIC50, per entry:
O=C(O)c1ccc(C2C(C(=O)c3ccc(Br)cc3)=C(O)C(=O)N2c2ccc(O)c(C(=O)O)c2)cc1 (stereo not shown) [C893] : 4.40 to 4.52
O=C(O)c1ccc(C2C(C(=O)c3ccc(Br)cc3)=C(O)C(=O)N2c2cccc(C(=O)O)c2)cc1 (stereo not shown) [C894] : < 4.00
COc1ccc(C(=O)C2=C(O)C(=O)N(c3cccc(C(=O)O)c3)C2c2ccc(C(=O)O)cc2)cc1 (stereo not shown) [C886] : < 4.00

In the following, a different compound is considered.
Please list pIC50 recorded for the compound O=C(O)c1cccc(N2C(=O)C(O)=C(C(=O)c3ccccc3)C2c2ccc(-c3nccs3)cc2)c1 (stereo not shown) [C897]
4.40 to 4.52

* * *

# target.or.system: LIN28–let-7 interaction (Homo sapiens)
# Construct: Purified LIN28A (residues 16–187) was incubated at a concentration of 200 nM; His-tag (cleaved yes); made in house; host or cells: Escherichia coli BL21(DE3)
# Sequence (Q9H9Z2 16-187): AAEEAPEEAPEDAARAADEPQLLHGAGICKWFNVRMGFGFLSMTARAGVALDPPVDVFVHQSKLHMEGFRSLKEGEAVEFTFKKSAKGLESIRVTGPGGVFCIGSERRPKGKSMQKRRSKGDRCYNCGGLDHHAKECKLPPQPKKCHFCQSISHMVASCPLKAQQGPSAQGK
# protocol: Fluorescence polarization (FP) assay, LIN28A (residues 16–187) and FAM-labeled preE-let-7f-1
# Assay type: binding
# condition.notes: raw data Table S3; 0.368 μM compound; four replicates
measured.quantity: FP, Average (mP)

O=C(C1=C(O)C(=O)N(c2ccc(O)c(C(=O)O)c2)C1c1ccc(-c2nccs2)cc1)c1ccc(Br)cc1 (stereo not drawn) [C902/PH-31] : 113.50
O=C(C1=C(O)C(=O)N(c2ccc(O)cc2)C1c1ccc(-c2nccs2)cc1)c1ccc(Br)cc1 (stereo not drawn) [PH-35] : 116.50
O=C(C1=C(O)C(=O)N(c2ccc(O)c(C(=O)O)c2)C1c1ccc(-c2nccs2)cc1)c1ccccc1 (stereo not drawn) [C879/PH-34] : 115.50

* * *

# target.or.system: LIN28–let-7 interaction (Homo sapiens, UniProt Q9H9Z2)
# Construct: Purified LIN28A (residues 16–187) was incubated at a concentration of 200 nM; His-tag (cleaved yes); made in house; host or cells: Escherichia coli BL21(DE3)
# protocol: Fluorescence polarization (FP) assay, LIN28A (residues 16–187) and FAM-labeled preE-let-7f-1
# Format: binding
# condition.notes: text and figures; C-labels = library sample, PH-labels = in-house resynthesized; read-out: IC50 in the FP assay
# Procedure: Protein expression and purification. 19 vector and overexpressed in Escherichia coli BL21(DE3). The culture was incubated at 37 °C until the absorbance at 600 nm (OD600) reached 0.5–0.7. IPTG was added to a final concentration of […] Fluorescence polarization. The fluorescence polarization assay was performed in black low volume […] FAM, synthesized by IDT) was added to a final concentration of 2 nM. Fluorescence polarization was detected after incubation at room temperature using a TECAN Spark plate reader. […]
pIC50: −log10 of the molar value.
measured.quantity: pIC50

O=C(C1=C(O)C(=O)N(c2ccc(O)c(C(=O)O)c2)C1c1ccc(-c2nccs2)cc1)c1ccc(Br)cc1 (stereo not shown) [C902/PH-31] : 4.74
CC1(C)Oc2cc(N3CCN(C(=O)OCc4ccccc4)CC3)c([N+](=O)[O-])cc2-c2c1cnn2-c1ccc(C(=O)O)cc1 [SB1301, reference compound] : 4.57

* * *

# target.or.system: cold-shock domain of LIN28A (Homo sapiens)
# Sequence (Q9H9Z2 16-126): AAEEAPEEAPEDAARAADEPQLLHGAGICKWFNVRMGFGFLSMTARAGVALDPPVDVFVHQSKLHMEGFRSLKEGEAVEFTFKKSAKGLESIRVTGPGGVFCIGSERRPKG
measured.quantity: Kd (µM)
Please reply with the bare figure in µM and do not write the unit itself.

Retrieve Kd measured for O=C(C1=C(O)C(=O)N(c2ccc(O)c(C(=O)O)c2)C1c1ccc(-c2nccs2)cc1)c1ccc(Br)cc1 (stereo not shown) and print it.
16.5

* * *

# target.or.system: LIN28–let-7 interaction (Homo sapiens)
# Construct: Purified LIN28A (residues 16–187) was incubated at a concentration of 200 nM; His-tag (cleaved yes); made in house; host or cells: Escherichia coli BL21(DE3)
# protocol: Fluorescence polarization (FP) assay, LIN28A (residues 16–187) and FAM-labeled preE-let-7f-1
# Assay type: binding
# condition.notes: raw data Table S3; 0.123 μM compound; four replicates
measured.quantity: FP, Average (mP)

O=C(C1=C(O)C(=O)N(c2ccc(O)c([N+](=O)[O-])c2)C1c1ccc(-c2nccs2)cc1)c1ccccc1 (stereo not shown) [PH-37] : 106.48
O=C(C1=C(O)C(=O)N(c2ccc(O)cc2)C1c1ccc(-c2nccs2)cc1)c1ccc(Br)cc1 (stereo not shown) [PH-35] : 112.75
O=C(O)c1ccc(C2C(C(=O)c3ccccc3)=C(O)C(=O)N2c2ccc(O)cc2)cc1 (stereo not shown) [PH-36] : 116.25
O=C(C1=C(O)C(=O)N(c2ccc(O)c(C(=O)O)c2)C1c1ccc(-c2nccs2)cc1)c1ccco1 (stereo not shown) [PH-43] : 109.50
O=C(C1=C(O)C(=O)N(c2ccc(O)c(C(=O)O)c2)C1c1ccc(-c2nccs2)cc1)c1ccc(Br)cc1 (stereo not shown) [C902/PH-31] : 110.00
O=C(O)c1ccc(C2C(C(=O)c3ccccc3)=C(O)C(=O)N2c2ccc(O)c(C(=O)O)c2)cc1 (stereo not shown) [C880/PH-39] : 113.50
O=C(C1=C(O)C(=O)N(c2ccc(O)c(C(=O)O)c2)C1c1ccc(-c2nccs2)cc1)c1ccccc1 (stereo not shown) [C879/PH-34] : 110.90
COc1ccc(C(=O)C2=C(O)C(=O)N(c3ccc(O)c(C(=O)O)c3)C2c2ccc(-c3nccs3)cc2)cc1OC (stereo not shown) [PH-44] : 118.00
O=C(O)c1ccc(C2C(C(=O)c3ccccc3)=C(O)C(=O)N2c2ccc(C(=O)O)c(O)c2)cc1 (stereo not shown) [PH-38] : 113.25
O=C(C1=C(O)C(=O)N(c2ccc(C(=O)O)c(O)c2)C1c1ccc(-c2nccs2)cc1)c1ccc(Br)cc1 (stereo not shown) [PH-30] : 116.25
